Test: viability loss with induced miR-34 in A549 – imaging, A549 dox-inducible miR-34, nuclei and caspase counts, primary screen (AID 1347080); note: test concentration not given here
Settings: A549 miR-34 inducible, Hoechst nuclei count, 48 h; measured here: total cells with miR-34 induction; stronger effect = lower value
Lab note: cut-off is 6000. Strictly less in cell count is met. Exactly 6000 or more is not met.

CCCCCCCCCCCCCCC(=O)N[C@H]1CCOC1=O    met
CC(=O)Nc1nc(C)c(-c2ccc(Cl)c(S(=O)(=O)NCCO)c2)s1    met
COc1oc(=O)c2cc(N)ccc2c1Cl    not met
CCCCC/C=C\C/C=C\C/C=C\C/C=C\CCCCN1C(=O)C=CC1=O    met

Enquiry: Please let me know if COc1ccc2cccc(N3CCN(CCNC(=O)c4ccc(F)cc4)CC3)c2c1 shows cell count below 6000.
Return: not met

Enquiry: Is cell count strictly under 6000 for the entry Cc1ccccc1C#Cc1ccc(CCC(=O)O)cc1 ?
Return: not met
